- Tested on: Hordeum vulgare
- assay-summary: Postemergence herbicidal activity (Example 67)
- Format: in vivo
- recorded-conditions: pos, 800 g/ha
The entries below come with measured HOR VW rating values attached.
readout-name: HOR VW rating

INSERT INTO measurements (compound, measurement) VALUES
  ('C[C@H](NC(=O)c1nc(-c2cccc(F)c2)ns1)c1ccccc1 [Example 45]', '4 (30-44%)'),
  ('CC(NC(=O)c1nc(-c2cccc(Cl)n2)ns1)c1cccs1 (racemic) [Example 47]', '3 (16-29%)'),
  ('COc1ccc(-c2nsc(C(=O)NC(C)c3ccsc3)n2)cc1 (racemic) [Example 61]', 0),
  ('O=C(NCc1cccs1)c1nc(-c2cccc(F)c2)ns1 [Example 44]', '3 (16-29%)'),
  ('Cc1ccc(-c2nc(C(=O)NC(C)c3cccs3)ns2)cc1 (racemic) [Example 41]', '2 (6-15%)'),
  ('O=C(NCc1cccs1)c1nsc(-c2ccccc2)n1 [Example 49]', '4 (30-44%)');

###

- Test system: Hordeum vulgare
- assay-summary: Preemergence herbicidal activity (Example 67)
- Format: in vivo
- Set-up: scale not given here
- recorded-conditions: pre; 800 g/ha; rated about 1-3 weeks after treatment
- Method: Herbicidal evaluation of compounds of the invention is conducted on the following plant species: The soil is a prepared horticultural substrate containing 30% peat, 20% volcanic clay, 30% bark residues and 20% polyamide/styromull in a 1:3 mixture with loamy sand. […] After 10-21 days, the treated plants are evaluated and rated according to the rating system provided below. […]
readout-name: herbicide rating, HORVW

INSERT INTO measurements (molecule, measurement) VALUES
  ('CC(NC(=O)c1nc(-c2ccccc2F)ns1)c1cccs1 (racemic)', 0),
  ('CC(NC(=O)c1nsc(-c2cccc(C(F)(F)F)c2)n1)c1cccs1 (racemic)', 0),
  ('CCCCc1nsc(C(=O)N[C@@H](C)c2ccccc2)n1', 0),
  ('COc1ccc(-c2nsc(C(=O)N[C@@H](C)c3ccccc3)n2)cc1', 0),
  ('CC(NC(=O)c1nc(-c2ccc(Cl)cc2)ns1)c1cccs1 (racemic)', 0),
  ('COCCc1nsc(C(=O)NC(C)c2cccs2)n1 (racemic)', 0),
  ('COc1ccc(-c2nsc(C(=O)NC(C)c3cccs3)n2)cc1 (racemic)', 0),
  ('C[C@H](NC(=O)c1nc(-c2ccc(Cl)cc2)ns1)c1ccccc1', 0),
  ('CCCCc1nsc(C(=O)NCc2cccs2)n1', 0);

###

The entries below come with measured CHE AL rating values attached.
- Test system: Chenopodium album
- assay-summary: Postemergence herbicidal activity (Example 67)
- Assay type: in vivo
- recorded-conditions: pos, 800 g/ha
readout-name: CHE AL rating

INSERT INTO assay_data (compound, readout_name, measurement) VALUES
  ('O=C(Nc1cccc(F)c1)c1nsc(-c2cccc(C(F)(F)F)c2)n1', 'CHE AL rating', 0),
  ('C[C@H](NC(=O)c1nc(-c2cccc(Cl)n2)ns1)c1ccccc1', 'CHE AL rating', '6 (65-79%)'),
  ('C[C@H](NC(=O)c1nsc(-c2cccc(C(F)(F)F)c2)n1)c1ccccc1', 'CHE AL rating', '3 (16-29%)'),
  ('CC(NC(=O)c1nc(-c2cccc(Cl)n2)ns1)c1cccs1 (racemic)', 'CHE AL rating', '4 (30-44%)'),
  ('C[C@H](NC(=O)c1nc(-c2cccc(F)c2)ns1)c1ccccc1', 'CHE AL rating', '4 (30-44%)'),
  ('CC(NC(=O)c1nc(-c2c(F)cccc2F)ns1)c1cccs1 (racemic)', 'CHE AL rating', '6 (65-79%)'),
  ('COc1ccc(-c2nc(C(=O)NC(C)c3cccs3)ns2)cc1 (racemic)', 'CHE AL rating', '4 (30-44%)'),
  ('C[C@H](NC(=O)c1nsc(-c2ccccc2F)n1)c1ccccc1', 'CHE AL rating', '4 (30-44%)'),
  ('O=C(Nc1ccc(F)cc1)c1nsc(-c2cccc(C(F)(F)F)c2)n1', 'CHE AL rating', 0),
  ('CC(NC(=O)c1nc(-c2cccc(F)c2)ns1)c1cccs1 (racemic)', 'CHE AL rating', '4 (30-44%)'),
  ('O=C(NCc1cccs1)c1nc(-c2cccc(F)c2)ns1', 'CHE AL rating', 0),
  ('C[C@H](NC(=O)c1nsc(-c2ccc(F)cc2)n1)c1ccccc1', 'CHE AL rating', '8 (91-99%)'),
  ('COc1ccc(-c2nsc(C(=O)NC3CCCc4ccccc43)n2)cc1 (racemic)', 'CHE AL rating', '2 (6-15%)'),
  ('C[C@H](NC(=O)c1nc(-c2c(F)cccc2F)ns1)c1ccccc1', 'CHE AL rating', '7 (80-90%)'),
  ('O=C(NCc1cccs1)c1nc(-c2c(F)cccc2F)ns1', 'CHE AL rating', 0);
